- TESTED TARGET: human ether-à-go-go-related gene (hERG) potassium channel (human, UniProt Q12809);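 note: peak tail current of the secondary pulse compared with the same well before compound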
- Sequence (Q12809 whole entry, looked up): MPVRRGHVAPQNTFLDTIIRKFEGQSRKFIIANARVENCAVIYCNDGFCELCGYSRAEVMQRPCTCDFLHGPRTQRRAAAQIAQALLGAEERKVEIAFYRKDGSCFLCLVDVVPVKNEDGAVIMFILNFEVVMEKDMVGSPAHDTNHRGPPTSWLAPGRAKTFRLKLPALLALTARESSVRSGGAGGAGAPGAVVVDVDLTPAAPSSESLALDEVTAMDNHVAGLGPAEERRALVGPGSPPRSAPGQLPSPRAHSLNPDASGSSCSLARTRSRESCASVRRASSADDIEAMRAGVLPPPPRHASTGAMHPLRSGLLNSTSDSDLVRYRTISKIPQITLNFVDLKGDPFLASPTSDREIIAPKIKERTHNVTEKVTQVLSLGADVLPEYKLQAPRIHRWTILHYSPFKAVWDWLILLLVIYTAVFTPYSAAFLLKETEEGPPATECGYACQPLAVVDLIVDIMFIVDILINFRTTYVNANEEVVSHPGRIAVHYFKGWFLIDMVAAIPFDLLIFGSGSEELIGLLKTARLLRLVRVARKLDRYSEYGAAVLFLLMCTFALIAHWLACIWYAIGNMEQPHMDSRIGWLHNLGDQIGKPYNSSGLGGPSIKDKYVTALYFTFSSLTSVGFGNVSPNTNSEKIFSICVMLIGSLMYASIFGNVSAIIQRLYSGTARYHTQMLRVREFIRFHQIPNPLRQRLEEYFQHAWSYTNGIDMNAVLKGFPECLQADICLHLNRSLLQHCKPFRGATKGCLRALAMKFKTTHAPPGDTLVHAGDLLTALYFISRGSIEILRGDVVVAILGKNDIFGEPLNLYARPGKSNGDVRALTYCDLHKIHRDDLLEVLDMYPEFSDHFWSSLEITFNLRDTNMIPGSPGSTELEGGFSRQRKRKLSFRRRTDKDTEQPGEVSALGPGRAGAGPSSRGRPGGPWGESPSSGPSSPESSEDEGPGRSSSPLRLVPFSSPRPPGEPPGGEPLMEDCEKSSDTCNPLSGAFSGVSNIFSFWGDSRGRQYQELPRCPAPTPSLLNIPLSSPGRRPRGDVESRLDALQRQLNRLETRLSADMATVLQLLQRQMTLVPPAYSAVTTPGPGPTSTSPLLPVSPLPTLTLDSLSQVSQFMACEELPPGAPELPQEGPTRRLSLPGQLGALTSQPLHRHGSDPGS
- PROCEDURE DETAILS: primary screen, population patch clamp on CHO cells stably expressing hERG; higher = less effect of the substance
Hit rate of the full screen: of about 310,000 compounds, about 14,000 (4.5%) showed an effect of 50% or more. Effects have a minus sign here. The entries come from a sample that favours strong results as a whole.
RESULT TYPE: hERG current change (%, negative = inhibition) at 10uM (%)
Give the number; % is assumed, so skip it.

QUERY: Specify hERG current change (%, negative = inhibition) at 10uM for COc1cc(OC)c(CN2CCC(CO)(CCOc3ccccc3)CC2)c(OC)c1 and stop.
RESULT: -86.4

QUERY: Specify hERG current change (%, negative = inhibition) at 10uM for COc1ccc(OCC(=O)N2CCCC(CO)(CCOc3ccccc3)C2)cc1 (stereo not drawn) and stop.
RESULT: -46.8

QUERY: Specify hERG current change (%, negative = inhibition) at 10uM for Cc1c(Cl)cccc1-n1ccnc1SCC(=O)O and stop.
RESULT: 18.2

QUERY: Specify hERG current change (%, negative = inhibition) at 10uM for O=C(Oc1c(Br)cc([N+](=O)[O-])cc1Br)c1cccnc1 and stop.
RESULT: 16.7

QUERY: Specify hERG current change (%, negative = inhibition) at 10uM for COc1cc(OC)cc(C(=O)Nc2ccc(CN3CCCCC3)cc2)c1 and stop.
RESULT: -14.7

QUERY: Specify hERG current change (%, negative = inhibition) at 10uM for Cc1ccc2c(O)c(C)c(=O)[nH]c2n1 and stop.
RESULT: 24.3

QUERY: Specify hERG current change (%, negative = inhibition) at 10uM for COc1ccc(-c2c(C(C)=O)c(C)nc3sc4c(=O)[nH]nnc4c23)cc1 and stop.
RESULT: 8.95

QUERY: Specify hERG current change (%, negative = inhibition) at 10uM for COCCOC(=O)c1c(C)n(C)c2ccc(OC(=O)c3ccco3)cc12 and stop.
RESULT: -2.37

QUERY: Specify hERG current change (%, negative = inhibition) at 10uM for COc1ccc(CN2CC(=O)N(c3ccc(C)c(C)c3)C2=S)cc1OC and stop.
RESULT: 12.2

QUERY: Specify hERG current change (%, negative = inhibition) at 10uM for C=CCC1C=CCC(CC=C)N1C(=O)c1ccccc1[N+](=O)[O-] (stereo not drawn) and stop.
RESULT: -3.17

QUERY: Specify hERG current change (%, negative = inhibition) at 10uM for O=C(CNC(=O)C12CC3CC(CC(C3)C1)C2)N/N=C\c1ccco1 and stop.
RESULT: 5.05

QUERY: Specify hERG current change (%, negative = inhibition) at 10uM for COc1ccccc1CNC(=O)C1CC2Cn3c(nc4ccccc43)C2N1C (stereo not drawn) and stop.
RESULT: -9.34

QUERY: Specify hERG current change (%, negative = inhibition) at 10uM for Cc1ccc(-n2ncc3c2CC(C)(C)CC3NC(=O)c2cc[n+]([O-])cc2)cc1 (stereo not drawn) and stop.
RESULT: -75.4

QUERY: Specify hERG current change (%, negative = inhibition) at 10uM for Cc1ccc(-n2ncc3c2CC(C)(C)CC3NC(=O)c2ccc[n+]([O-])c2)cc1 (stereo not drawn) and stop.
RESULT: -1.89

QUERY: Specify hERG current change (%, negative = inhibition) at 10uM for Cc1cc(C)cc(SCc2noc(C(=O)NC(C)C)c2C(=O)O)c1 and stop.
RESULT: 33.6

QUERY: Specify hERG current change (%, negative = inhibition) at 10uM for CC(C)(C)c1csc(CS(=O)(=O)c2ccccn2)n1 and stop.
RESULT: -6.8

QUERY: Specify hERG current change (%, negative = inhibition) at 10uM for O=C(COC(=O)c1ccc(F)cc1F)Nc1cccnc1Cl and stop.
RESULT: -56.3

QUERY: Specify hERG current change (%, negative = inhibition) at 10uM for O=C(CSc1n[nH]c(-c2ccco2)n1)Nc1sc2c(c1C(=O)Nc1ccccc1)CCCC2 and stop.
RESULT: -41

QUERY: Specify hERG current change (%, negative = inhibition) at 10uM for O=C(Nc1ccc(C(=O)N2CCCC2)cc1)c1ccc2c(c1)OCO2 and stop.
RESULT: -0.403

QUERY: Specify hERG current change (%, negative = inhibition) at 10uM for O=C(COC(=O)c1ccc(F)cc1F)Nc1ncccn1 and stop.
RESULT: -3.24

QUERY: Specify hERG current change (%, negative = inhibition) at 10uM for COc1cc(SC)ccc1C(=O)OCC(=O)NC1CC1 and stop.
RESULT: 7.53

QUERY: Specify hERG current change (%, negative = inhibition) at 10uM for CCOc1ccc(OCc2cccc(C(=O)N3CCCC3)c2)cc1 and stop.
RESULT: -11.6

QUERY: Specify hERG current change (%, negative = inhibition) at 10uM for O=C(NCc1cccc(C(F)(F)F)c1)C1CC2Cn3c(nc4ccccc43)C2N1Cc1ccccc1 (stereo not drawn) and stop.
RESULT: -57.8

QUERY: Specify hERG current change (%, negative = inhibition) at 10uM for Cl.O.O=C(c1ccc(F)cc1)C1CCN(CCn2c(=S)[nH]c3ccccc3c2=O)CC1 and stop.
RESULT: -68.9

QUERY: Specify hERG current change (%, negative = inhibition) at 10uM for Cc1ccc(-n2ncc3c2CC(C)(C)CC3NC(=O)c2ccccn2)cc1 (stereo not drawn) and stop.
RESULT: -73.7

QUERY: Specify hERG current change (%, negative = inhibition) at 10uM for CCOc1ccc(OCc2cccc(C(=O)N3CCCCCC3)c2)cc1 and stop.
RESULT: -69.3

QUERY: Specify hERG current change (%, negative = inhibition) at 10uM for CC1=C(C(=O)NC2CC(C)(C)Cc3c2cnn3-c2ccc(C)cc2)OCCO1 (stereo not drawn) and stop.
RESULT: 3.64
